- System: Wolinella succinogenes
- ASSAY_NAME: Inhibition of Wolinella succinogenes quinol/fumarate reductase at 20 uM
Active and inactive are the calls of the source. The rule behind the calls is not given here.
// one of yes (1) for active, no (0) for inactive, no free text

Solved cases below.
SMILES_STR	QUALITATIVE_LABEL
CCC1=C(O)C(=O)c2ccccc2C1=O	yes (1)
O=C1C(O)=C(CCCC2CCCCC2)C(=O)c2ccccc21	yes (1)
CC1=C(Br)C(=O)c2ccccc2C1=O	yes (1)
CCCCCCC1=C(Br)C(=O)c2ccccc2C1=O	yes (1)
CCCCCCC1=C(OC)C(=O)c2ccccc2C1=O	yes (1)

Field: outcome | Entry: `CCCCCCCCCCC1=C(O)C(=O)c2ccccc2C1=O`
yes (1)

Field: outcome | Entry: `O=C1C(O)=C(CCCc2ccccc2)C(=O)c2ccccc21`
yes (1)

Field: outcome | Entry: `CC(C)(O)CCC1=C(O)C(=O)c2ccccc2C1=O`
no (0)

Field: outcome | Entry: `CCCCCCCCCOC1=CC(=O)c2ccccc2C1=O`
yes (1)

Field: outcome | Entry: `CCCCCCCCCCCCCCC1=C(O)C(=O)c2ccccc2C1=O`
yes (1)

Field: outcome | Entry: `CCCCCCCCCCC1=C(Br)C(=O)c2ccccc2C1=O`
yes (1)

Field: outcome | Entry: `CCCCCCCCCOC1=CC(=O)C(=O)c2ccccc21`
no (0)

Field: outcome | Entry: `CCCCCCCCCCC1=C(OC)C(=O)c2ccccc2C1=O`
yes (1)

Field: outcome | Entry: `O=C1C(O)=C(CCCCC2CCCCC2)C(=O)c2ccccc21`
yes (1)

Field: outcome | Entry: `CCC1=C(Br)C(=O)c2ccccc2C1=O`
yes (1)

Field: outcome | Entry: `CCC1=C(OC)C(=O)c2ccccc2C1=O`
yes (1)

Field: outcome | Entry: `CC1=C(O)C(=O)c2ccccc2C1=O`
yes (1)

Field: outcome | Entry: `CCCCCCC1=C(O)C(=O)c2ccccc2C1=O`
yes (1)

Field: outcome | Entry: `O=C1C=C(O)C(=O)c2ccccc21`
yes (1)

Field: outcome | Entry: `CC(C)(C)CC1=C(O)C(=O)c2ccccc2C1=O`
yes (1)

Field: outcome | Entry: `O=C1C(O)=C(CCCCCCCCCCBr)C(=O)c2ccccc21`
no (0)

###

- Test system: Wolinella succinogenes
- ASSAY_NAME: Inhibition of Wolinella succinogenes succinate/quinone reductase at 20 uM
Activity calls are given as the source filed them. The rule behind the calls is not given here.
// one of active, inactive, no free text

Solved cases below.
SMILES_STR	SYSTEM_NAME	QUALITATIVE_LABEL
CCCCCCCCCCC1=C(Br)C(=O)c2ccccc2C1=O	Wolinella succinogenes	active
CCCCCCCCCOC1=CC(=O)C(=O)c2ccccc21	Wolinella succinogenes	inactive

Field: outcome | Entry: `CCCCCCC1=C(Br)C(=O)c2ccccc2C1=O`
active

Field: outcome | Entry: `CCCCCCCCCCC1=C(O)C(=O)c2ccccc2C1=O`
active

Field: outcome | Entry: `CCC1=C(Br)C(=O)c2ccccc2C1=O`
active

Field: outcome | Entry: `CC(C)(O)CCC1=C(O)C(=O)c2ccccc2C1=O`
inactive

Field: outcome | Entry: `CCCCCCC1=C(O)C(=O)c2ccccc2C1=O`
active

###

- ASSAY_NAME: Inhibition of Wolinella succinogenes quinol/fumarate reductase
PROPERTY_MEASURED: IC50 (µM)

A. CCC1=C(Br)C(=O)c2ccccc2C1=O
B. CC1=C(Br)C(=O)c2ccccc2C1=O
Input pair: A , B . Output: entry with lower IC50. Which one? Tell me its label.
B
(B: 0.061 µM, A: 0.612 µM)

###

- Test system: Wolinella succinogenes
- ASSAY_NAME: Inhibition of Wolinella succinogenes succinate/quinone reductase at 20 uM
The source made the active and inactive calls. The rule behind the calls is not given here.
// one of active, inactive, no free text

SMILES_STR	QUALITATIVE_LABEL
CC1=C(Br)C(=O)c2ccccc2C1=O	active

Attention now shifts to the item below.
Field: outcome | Entry: `CC(C)(C)CC1=C(O)C(=O)c2ccccc2C1=O`
active

###

- Test system: Wolinella succinogenes
- ASSAY_NAME: Inhibition of Wolinella succinogenes succinate/quinone reductase at 20 uM
Calls of active or inactive are those of the source. The calls are words filed in the database; no cut-off is given here.
// one of yes = active, no = inactive, no free text

Field: outcome | Entry: `O=C1C(O)=C(CCCCCCCCCCBr)C(=O)c2ccccc21`
no

Field: outcome | Entry: `O=C1C=C(O)C(=O)c2ccccc21`
yes

Field: outcome | Entry: `CCC1=C(O)C(=O)c2ccccc2C1=O`
yes

Field: outcome | Entry: `CCC1=C(OC)C(=O)c2ccccc2C1=O`
yes
